Molecular target: mature StHSD (heat-treated) (Sulfurisphaera tokodaii, UniProt F9VNG5)
Construct: full length (residues 1-304 described), recombinant from plasmid pSTHSD in E. coli BL21, matured by heat treatment (343 K); homodimer
Sequence (F9VNG5 1-304): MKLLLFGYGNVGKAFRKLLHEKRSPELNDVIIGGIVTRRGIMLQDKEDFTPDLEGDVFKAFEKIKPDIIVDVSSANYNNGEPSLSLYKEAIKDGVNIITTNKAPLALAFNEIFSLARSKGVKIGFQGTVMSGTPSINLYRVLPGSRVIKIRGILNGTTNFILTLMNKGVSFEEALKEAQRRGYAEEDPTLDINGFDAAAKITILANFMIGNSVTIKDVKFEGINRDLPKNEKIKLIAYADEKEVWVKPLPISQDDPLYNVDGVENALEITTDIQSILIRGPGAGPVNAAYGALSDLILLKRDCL
Assay: initial velocity of NADH production at […] nm; Morrison fit
Conditions: read-out: apparent Ki
pKi: −log10 of the molar value.

| Entry Smiles | pKi |
| --- | --- |
| NC(=O)c1ccc[n+]([C@@H]2O[C@H](COP(=O)(O)OP(=O)(O)OC[C@H]3O[C@@H](n4cnc5c(N)ncnc54)[C@H](OP(=O)(O)O)[C@@H]3O)[C@@H](O)[C@H]2O)c1 | 4.32 |
